Source of measurements: patent US8461328B2

# SUBJECT OF TEST: JAK3 (Homo sapiens)
# Construct: made in house; host or cells: SF9 insect cells (baculovirus)
# Sequence (P52333 783-1124): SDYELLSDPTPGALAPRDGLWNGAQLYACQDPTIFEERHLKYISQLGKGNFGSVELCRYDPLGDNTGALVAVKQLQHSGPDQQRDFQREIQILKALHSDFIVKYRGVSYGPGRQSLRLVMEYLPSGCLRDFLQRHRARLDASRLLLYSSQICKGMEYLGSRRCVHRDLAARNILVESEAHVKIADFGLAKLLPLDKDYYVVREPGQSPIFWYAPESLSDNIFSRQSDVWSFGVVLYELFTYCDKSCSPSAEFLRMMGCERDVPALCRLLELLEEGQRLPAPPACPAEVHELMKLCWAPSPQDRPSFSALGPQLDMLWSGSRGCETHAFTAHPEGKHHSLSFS
# EXPERIMENT DESCRIPTION: JAK3 inhibition (Table 4)
# Format: biochemical
# RUN PARAMETERS: read-out: JAK3 Ki
Could you please report measured pKi for the items listed next?
// scale note: pKi = -log10(conc_M); give the bare number

Return value of pKi for input CC(C)c1nc2cnc3[nH]ccc3c2n1C1CCNCC1 [Example 168] , no commentary.
6.48

Write down pKi measured for item CC(C)(C)OC(=O)N1CCCC1(C)C(=O)N1CCC(n2cnc3cnc4[nH]ccc4c32)CC1 (racemic) [Example 244]
5.47

Find the measured pKi of c1cc2c(ncc3ncn(C4CCCOC4)c32)[nH]1 (single isomer, unassigned) [Example 465] and report it.
7.29

State, in one line, measured pKi of CC(C)NC(=O)[C@H]1CC[C@H](n2cnc3cnc4[nH]ccc4c32)CC1 [Example 247]
6.61
